Origin of values: patent US20210253725A1

Molecular target: T1, CD27 expressed on the cell surface of HT1080_CD27 cells (human, UniProt P26842 20-260); further: test concentration or dose not given here
T1 sequence (looked up): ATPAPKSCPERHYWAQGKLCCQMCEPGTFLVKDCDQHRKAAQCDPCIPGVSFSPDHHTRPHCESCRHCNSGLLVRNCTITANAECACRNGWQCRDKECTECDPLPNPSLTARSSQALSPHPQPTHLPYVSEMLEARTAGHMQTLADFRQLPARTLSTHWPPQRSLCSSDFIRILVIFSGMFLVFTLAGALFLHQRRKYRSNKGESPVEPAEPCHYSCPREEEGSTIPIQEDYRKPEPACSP
Experiment: cell-based or functional assay
The entries below come with measured Functional assay IL-8 values attached.
readout: Functional assay IL-8 (abs. corr.)

* P018.S.10.A.H05 (antibody, V domains shown, V regions on human Ig constant parts; also called AB27_186) VH: QSLEESGGRLVTPGTPLTLTCTASGFSLSTYYMSWVRQAPGKGLEWIGIIYTSGSTYYASWAKGRFTISRNSTTVDLKITSPTTEDTATYFCARSRVPGDTTGLYYFNLWGPGTLVTVSS VL: ALVMTQTPASVSAAVEGTVTINCQASENIYSNLAWYQQKPGQPPKLLIYHTSNLASGVPSRFKGSGAGTEFTLTISDLESDDAATYYCQSAYDSSSSDTFTFGGGTEVVVK | -0.155
* P018.S.02.A.B01 (antibody, V domains shown, V regions on human Ig constant parts; also called AB27_29) VH: QSVEESGGRLVTPGTPLTLTCTVSGMDLSSYSMSWVRQAPGEGLEYIGFIGSSGGTYYASWAKGRFTISRTSTTVDLNITSPTTEDTATYFCARMLAGVYTRLDLWGQGTLVTVSS VL: AQVLTQTPSSVSAAVGGTVTINCQASQSISSSYCSWYQQKPGQPPKLLIYKASTLASGVPSRFKGSGSGTQFTLTISDVQSDDAATYYCAGDFIASSGNAFGGGTEVVVK | 0.538
